Provenance of the data: ChEMBL document CHEMBL3638458

Listed here: items and their measured pKi.
measurement_target: Transient receptor potential cation channel subfamily V member 1 (Homo sapiens, UniProt Q8NER1)
Sequence (Q8NER1 whole entry): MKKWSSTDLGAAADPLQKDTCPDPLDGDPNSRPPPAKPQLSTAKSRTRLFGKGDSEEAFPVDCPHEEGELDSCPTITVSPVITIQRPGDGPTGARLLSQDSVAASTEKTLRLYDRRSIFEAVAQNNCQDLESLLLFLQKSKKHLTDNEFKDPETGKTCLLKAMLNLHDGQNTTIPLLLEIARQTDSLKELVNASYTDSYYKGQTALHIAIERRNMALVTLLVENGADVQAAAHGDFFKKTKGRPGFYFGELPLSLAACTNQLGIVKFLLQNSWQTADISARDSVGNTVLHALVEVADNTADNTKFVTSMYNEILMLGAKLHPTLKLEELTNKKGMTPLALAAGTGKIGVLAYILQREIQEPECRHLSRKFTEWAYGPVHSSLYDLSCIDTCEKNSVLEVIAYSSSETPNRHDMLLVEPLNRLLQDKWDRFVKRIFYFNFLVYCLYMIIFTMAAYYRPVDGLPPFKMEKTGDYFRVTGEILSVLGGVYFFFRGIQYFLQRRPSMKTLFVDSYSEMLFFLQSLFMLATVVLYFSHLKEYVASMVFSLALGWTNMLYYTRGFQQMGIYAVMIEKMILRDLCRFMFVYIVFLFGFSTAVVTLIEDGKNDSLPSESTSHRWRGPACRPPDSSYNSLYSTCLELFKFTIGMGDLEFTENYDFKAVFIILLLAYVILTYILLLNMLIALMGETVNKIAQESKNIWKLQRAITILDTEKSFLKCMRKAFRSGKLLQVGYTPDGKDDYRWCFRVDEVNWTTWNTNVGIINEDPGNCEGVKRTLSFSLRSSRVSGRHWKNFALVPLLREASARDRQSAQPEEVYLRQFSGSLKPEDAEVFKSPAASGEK
test_details: FLIPR Assay: The FLIPR protocol consists of 2 substance additions. First the compounds to be tested (10 μM) are pipetted onto the cells and the Ca2+ influx is compared with the control (capsaicin 10 μM). This provides the result in % activation based on the Ca2+ signal after the addition of 10 μM of capsaicin (CP). After 5 minutes incubation, 100 nM of capsaicin are applied and the Ca2+ influx is also determined. Desensitising agonists and antagonists lead to suppression of the Ca2+ influx. The % inhibition is calculated compared to the maximum achievable inhibition with 10 μM of capsazepine. Starting from the percentage displacement caused by different concentrations of the compounds to be tested of general formula I, IC50 inhibitory concentrations which cause a 50-percent displacement of capsaicin were calculated. K1 values for the test substances were obtained by conversion by means of the Cheng-Prusoff equation (Cheng, Prusoff; Biochem. Pharmacol. 22, 3099-3108, 1973).
pKi: −log10 of the molar value.
observable: pKi

CCS(=O)(=O)NCc1ccc(C(C)C(=O)NCc2ccc(C(F)(F)F)nc2N2CCC(C)CC2)cc1F (centres undefined)
8.40
Cc1cc(C(C)C(=O)NCc2ccc(C(F)(F)F)nc2N2CCCC2)ccc1CNS(C)(=O)=O (centres undefined)
7.30
CC(C(=O)NCc1ccc(C(F)(F)F)nc1N1CCCC1)c1ccc(CNS(C)(=O)=O)cc1 (centres undefined)
7.70
CC1CCN(c2nc(C(F)(F)F)ccc2CNC(=O)C(C)c2cccc(CNS(C)(=O)=O)c2)CC1 (centres undefined)
6.99
